Hey, just so you know, these numbers are from PubChem BioAssay (EPA / NIEHS).

Read-out: Monokine induced gamma interferon (MIG), CXCL9 (gene 4283)
Experiment: BSK_3C_MIG: BioMAP Diversity Plus: 3C Assay for Monokine induced gamma interferon (MIG) Biomarker Activity (AID 2283021)
Conditions: primary human endothelial cells (HUVEC); actives raise or lower the signal
The source made the active and inactive calls. How the source made its calls: active means hit-call score of the fitted dose curve at least 0.9, where 1 is the maximum; inactive means score below 0.9.
Possible outcomes: active, inactive

compound: S=C(NC1CCCCC1)NC1CCCCC1
label class: inactive

compound: C=CCOCC(O)CCl (configuration not stated)
label class: inactive

compound: COCc1c(C(C)C)nc(C(C)C)c(/C=C/[C@@H](O)C[C@@H](O)CC(=O)O)c1-c1ccc(F)cc1
label class: inactive

compound: CCCCCCCCCCCCCCCC[N+](C)(C)CC
label class: active

compound: CCOc1nc(F)cc2nc(S(=O)(=O)Nc3c(Cl)cccc3C(=O)OC)nn12
label class: inactive

compound: O=C1CCCN1CCO
label class: inactive

compound: C=C[Si](OC(C)=O)(OC(C)=O)OC(C)=O
label class: inactive

###

Molecular target: Aryl hydrocarbon receptor (Homo sapiens) (UniProt P35869)
Sequence (P35869 whole entry, looked up): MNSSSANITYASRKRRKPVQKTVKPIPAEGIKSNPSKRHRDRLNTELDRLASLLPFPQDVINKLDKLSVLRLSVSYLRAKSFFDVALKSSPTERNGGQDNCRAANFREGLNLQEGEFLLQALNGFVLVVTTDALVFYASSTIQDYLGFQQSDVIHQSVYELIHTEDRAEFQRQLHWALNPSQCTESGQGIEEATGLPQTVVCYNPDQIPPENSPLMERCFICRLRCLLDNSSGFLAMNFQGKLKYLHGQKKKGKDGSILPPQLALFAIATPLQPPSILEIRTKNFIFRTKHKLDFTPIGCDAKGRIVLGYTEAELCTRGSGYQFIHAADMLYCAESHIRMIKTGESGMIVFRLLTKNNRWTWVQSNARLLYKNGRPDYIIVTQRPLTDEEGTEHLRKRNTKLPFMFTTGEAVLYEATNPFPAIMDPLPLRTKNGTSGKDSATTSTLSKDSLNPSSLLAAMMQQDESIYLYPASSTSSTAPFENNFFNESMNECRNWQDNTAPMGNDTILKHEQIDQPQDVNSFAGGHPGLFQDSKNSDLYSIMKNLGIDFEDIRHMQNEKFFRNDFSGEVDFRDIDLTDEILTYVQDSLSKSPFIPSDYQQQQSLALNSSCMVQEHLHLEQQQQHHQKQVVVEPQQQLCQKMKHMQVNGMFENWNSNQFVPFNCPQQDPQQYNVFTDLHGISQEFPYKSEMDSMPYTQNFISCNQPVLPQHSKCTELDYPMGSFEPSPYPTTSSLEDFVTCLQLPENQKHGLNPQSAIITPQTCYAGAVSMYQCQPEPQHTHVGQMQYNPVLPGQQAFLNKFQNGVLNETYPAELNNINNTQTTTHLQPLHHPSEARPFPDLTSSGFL
Test: ATG_Ahr_CIS: Attagene CIS-FACTORIAL HepG2 Assay for human Aryl Hydrocarbon Receptor (Ahr) (AID 2282930)
Settings: HepG2 AhR cis-factorial reporter transcription; actives raise or lower the signal
Calls of active or inactive are those of the source. The calls were made as follows: active = hit-call score of the fitted dose curve at least 0.9, where 1 is the maximum; inactive = score below 0.9.
Labels: active, inactive

molecule: O=S(=O)(O)c1cc(S(=O)(=O)O)c2ccc3c(S(=O)(=O)O)cc(S(=O)(=O)O)c4ccc1c2c43
label class: inactive

molecule: COCc1c(C(C)C)nc(C(C)C)c(/C=C/[C@@H](O)C[C@@H](O)CC(=O)O)c1-c1ccc(F)cc1
label class: inactive

molecule: Cc1cc(C)c(C)c(C)c1
label class: inactive

molecule: N=c1ccn2c(n1)O[C@H]1[C@H](O)[C@@H](CO)O[C@H]12
label class: inactive

molecule: NC(CO)(CO)CO
label class: inactive

molecule: O=c1n(CCO)c(=O)n(CCO)c(=O)n1CCO
label class: inactive

molecule: NC(=O)NNC(N)=O
label class: inactive

molecule: CCOc1ccc(N)c([N+](=O)[O-])c1
label class: inactive

molecule: O=C(c1ccc(O)cc1)c1ccc(O)cc1O
label class: inactive

molecule: COC(=O)/C=C/C(C)=C\C=C\C(C)=C\C=C\C=C(C)\C=C\C=C(C)\C=C\C(=O)O
label class: inactive

molecule: CC(C)c1ccc2cc(C(C)C)ccc2c1
label class: active

molecule: COCC(C)N (stereo not drawn)
label class: inactive

molecule: CCCc1ccc(OC)cc1
label class: inactive

molecule: CO[Si](OC)(OC)c1ccccc1
label class: inactive

molecule: CCCCCCCCC(=O)OCC
label class: inactive

molecule: O=S(=O)(O)c1ccc2cc(O)c(S(=O)(=O)O)cc2c1
label class: active

molecule: O=Cc1ccc(CO)o1
label class: inactive

molecule: CC=CC(=O)N(CC)c1ccccc1C
label class: inactive

molecule: CCC(C)C=O (stereo not drawn)
label class: inactive

molecule: C=CC(=O)OCCC(=O)O
label class: inactive

molecule: CC(=O)c1ccc2c(c1)CCCC2
label class: inactive

molecule: c1ccc(CNCc2ccccc2)cc1
label class: inactive

molecule: CCCCCCOC(=O)C(C)CC (stereo not drawn)
label class: inactive

molecule: O=S(=O)(O)CC(O)CCl (stereo not drawn)
label class: inactive

molecule: CC=CCO
label class: inactive

molecule: CC(C)=CCC[C@H](C)CCO
label class: inactive

molecule: Cc1cc(O)c(Cl)c(C)c1Cl
label class: inactive

molecule: CCCCCCCC/C=C\CCCCCCCC(=O)OCCO
label class: inactive

molecule: CCOC(=O)N1CCC(=C2c3ccc(Cl)cc3CCc3cccnc32)CC1
label class: inactive

molecule: CC1OC1C1CCC2(C)OC2C1 (stereo not drawn)
label class: inactive

molecule: O=[N+]([O-])c1ccc(CO)cc1
label class: inactive

molecule: c1ccc(-c2ccccn2)nc1
label class: inactive

molecule: NCCCN1CCN(CCCN)CC1
label class: inactive

molecule: CC/C=C\C/C=C\C/C=C\CCCCCCCC(=O)O
label class: inactive

molecule: CC(=O)Nc1nnc(S(N)(=O)=O)s1
label class: inactive

molecule: Cn1c(=O)[nH]c2ncn(C)c2c1=O
label class: inactive

molecule: CCN(CCC#N)c1ccc(N=Nc2c(Cl)cc([N+](=O)[O-])cc2Cl)cc1
label class: inactive

molecule: c1ccc2c(c1)ccc1cc3c(ccc4ccccc43)cc12
label class: active

molecule: CCCCCCOc1cc(C)c(O)c(C)c1C
label class: inactive

molecule: CCCCCCCC(C)=O
label class: inactive

molecule: C/C=C\C/C=C/CCCCCCCCOC(C)=O
label class: inactive

molecule: O=C1OC(=O)c2cc(Oc3ccc4c(c3)C(=O)OC4=O)ccc21
label class: inactive

molecule: c1ccc2c(c1)ccc1ncccc12
label class: active

molecule: O=C(O)c1ccccc1Nc1cccc(C(F)(F)F)c1
label class: inactive

molecule: CCN(CCO)c1cccc(C)c1
label class: active

molecule: S=C(NC1CCCCC1)NC1CCCCC1
label class: inactive

molecule: CCN(CC#N)c1cccc(C)c1
label class: inactive

molecule: C=C1C2CCC(C2)C1(C)C (stereo not drawn)
label class: inactive

molecule: O=[N+]([O-])C1(Br)COCOC1
label class: inactive

molecule: c1ccc(CCCc2ccncc2)cc1
label class: inactive

molecule: O=c1c2ccccc2oc2ccccc12
label class: inactive

molecule: CCCCC/C=C\CCC=O
label class: inactive

molecule: C=C(C)C(=O)OCC(C)C
label class: inactive
